Assay: reduction of polyQ htt aggregates in cells – imaging, exon1htt(103Q)mCFP cells, high-content imaging, primary screen (AID 483);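 note: compound exposure lasted 3 days before fixation; percent of the per-plate median nuclei count of sample wells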
Conditions: exon1htt(103Q)mCFP cell line, aggregate imaging, at 2 µM; measured here: cell count, toxicity
Measure Name: nuclei count
Put your answer as a value accompanied by its unit after it.

Please look up its nuclei count: `O=c1[nH]c(SCc2cc(=O)n3ccccc3n2)nc2c1CCC2`
87.5%

Next up: CCC1(C)Cc2c(C#N)c(N)n(-c3ccccc3)c(=O)c2CO1 (stereo not drawn)
100%

// same read-out, input: `COc1ccccc1-n1cnc(N)c1C(C)=O`
105%

Thanks! And `O=C(c1cn(-c2ccccc2)nc1-c1cccs1)N1CCN(c2ccccn2)CC1` ?
84.1%

One more molecule: `COc1cc2c(cc1OC)C(/C(C#N)=N\O)=NC(C)(C)C2`
107%

Try this molecule too: `Nc1nc(CSCc2ccccc2)nc(N2CCOCC2)n1`
95.4%

For `Cc1cccc(NC(=O)c2oc3c(c2C)C(=O)CC(C)(C)C3)n1` then?
90.8%

Another molecule to check: `NS(=O)(=O)c1ccc(NC(=O)CSc2nnc(Cc3cccs3)n2-c2ccccc2)cc1`
73.5%

Also, `CC(C)(C)c1cc(NC(=O)c2cc(F)c(F)c(F)c2F)no1` please.
104%

Repeat with `Cc1sc2ncnc(SCC(=O)N3CCCC3)c2c1C`
112%

Also COc1ccc(C2C(C(C)=O)=C(C)N=c3s/c(=C/c4ccc5c(c4)OCO5)c(=O)n32)cc1 (stereo not drawn) , if possible.
116%

`CCn1c(SCC(=O)Nc2ccc3c(c2)OCO3)nnc1-c1cnccn1` , same question.
89.2%

Entry to check: `O=C(Nc1cccc(Cl)c1)N1CCN(c2ncccn2)CC1`
94.1%
